Target: Leydig cell LH receptor (Mus musculus, UniProt P30730)
Construct: Leydig cells are isolated from the testes of mature, 9 to 13 weeks old, mice
Sequence (P30730 27-700): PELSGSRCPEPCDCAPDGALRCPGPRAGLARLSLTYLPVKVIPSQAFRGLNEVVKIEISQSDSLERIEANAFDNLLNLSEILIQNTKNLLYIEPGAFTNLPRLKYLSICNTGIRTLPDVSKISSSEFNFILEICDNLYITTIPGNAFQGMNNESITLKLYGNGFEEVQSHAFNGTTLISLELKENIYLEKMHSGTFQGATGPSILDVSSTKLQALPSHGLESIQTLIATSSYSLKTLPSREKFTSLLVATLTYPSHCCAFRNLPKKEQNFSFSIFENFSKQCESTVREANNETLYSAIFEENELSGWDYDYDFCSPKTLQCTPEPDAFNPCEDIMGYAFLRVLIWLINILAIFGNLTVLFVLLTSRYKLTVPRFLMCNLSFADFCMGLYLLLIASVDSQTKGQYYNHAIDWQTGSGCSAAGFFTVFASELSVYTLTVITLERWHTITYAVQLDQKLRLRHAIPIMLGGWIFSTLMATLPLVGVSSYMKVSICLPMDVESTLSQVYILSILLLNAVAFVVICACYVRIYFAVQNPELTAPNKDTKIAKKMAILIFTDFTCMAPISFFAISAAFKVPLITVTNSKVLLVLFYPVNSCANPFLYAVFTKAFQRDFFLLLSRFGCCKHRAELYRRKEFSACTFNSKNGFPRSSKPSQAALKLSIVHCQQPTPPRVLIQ
Experiment: In vitro test for LH bioactivity in mouse Leydig cells (testosterone production)
Details: 4 h incubation, testosterone measured by RIA
measured property: EC50 (nM)

* COc1cccc(-c2nc(SC)nc3sc(C(=O)N(C)C(C)C)c(N)c23)c1 | 870
* CSc1nc(-c2cccc(NC(=O)CNC(C)(C)C)c2)c2c(N)c(C(=O)NC(C)(C)C)sc2n1 | 320

1: COc1cccc(-c2nc(SC)nc3sc(C(=O)NC(C)(C)C)c(N)c23)c1
2: CSc1nc(-c2cccc(NC(=O)c3ccccc3)c2)c2c(N)c(C(=O)NC(C)(C)C)sc2n1
-- ask Look at 1 and 2 . Which one has the lower recorded EC50 number? Answer = label.
-- reply 2
(2: 280 nM, 1: 430 nM)

I: CSc1nc(-c2cccc(OCCCc3cccnc3)c2)c2c(N)c(C(=O)NC(C)(C)C)sc2n1
II: COc1cccc(-c2nc(-c3cccs3)nc3sc(C(=O)N4CCOCC4)c(N)c23)c1
-- ask Look at I and II . Which one has the lower recorded EC50 number? Answer = label.
-- reply I
(I: 1800 nM, II: 3100 nM)
